Data provenance: ChEMBL document CHEMBL1132421

# experimental_target: Chymotrypsin-like elastase family member 1 (Sus scrofa, UniProt P00772)
# Sequence (P00772 whole entry): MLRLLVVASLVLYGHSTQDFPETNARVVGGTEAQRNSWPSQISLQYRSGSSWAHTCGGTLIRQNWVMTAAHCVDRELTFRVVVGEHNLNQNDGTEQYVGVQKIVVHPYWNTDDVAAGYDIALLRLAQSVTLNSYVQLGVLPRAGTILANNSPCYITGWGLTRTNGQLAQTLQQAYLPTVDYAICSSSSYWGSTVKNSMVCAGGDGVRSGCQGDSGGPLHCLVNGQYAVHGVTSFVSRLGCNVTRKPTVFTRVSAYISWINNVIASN
Kindly supply the reported log10 IC50 values for the records listed here.
Values below are the log10 of the recorded IC50, with nM as the unit.

Known results for compounds:
CCCCCCC(NC(=O)c1ccc(C#N)cc1)C(C)(C)C(=O)N[C@@H](Cc1ccccc1)C(=O)OCC (stereo in doubt; 3)
0.85
CCCCCCC(NC(=O)c1ccc(C#N)cc1)C(C)(C)C(=O)N[C@@H](Cc1ccccc1)C(=O)OC (stereo partly specified)
3.62
CCCCCCC(NC(=O)c1ccc(C#N)cc1)C(C)(C)C(=O)N[C@@H](Cc1ccccc1)C(=O)OCCC (stereo partly specified)
2.43
CCCCC(NC(=O)c1ccc(C#N)cc1)C(C)(C)C(=O)N[C@@H](Cc1ccccc1)C(=O)OCC (stereo partly specified)
5.85

Please state, for each entry, its recorded log10 IC50.
1. CCCCCCC(NC(=O)c1ccc(C#N)cc1)C(C)(C)C(=O)N[C@@H](Cc1ccccc1)C(=O)OC(C)C (stereo partly specified)
2. CCCCCCCCC(NC(=O)c1ccc(C#N)cc1)C(C)(C)C(=O)N[C@@H](Cc1ccccc1)C(=O)OCC (stereo partly specified)

Solution:
1: 2.30; 2: 3.43
